- Study System: T1, IFN-α4a (human, UniProt P05014 24-189)
- T1 construct: also called IFN-αM1
- Assay Summary: ProteOn, one antigen concentration
Parameter Measured: Kd (nM)
Answer with a number only, understood to be in nM.

binder="IFWM3364 (antibody, V domains shown, VH IFWH624, VL IFWL1060; converted mAb; also called IFWB3099) VH: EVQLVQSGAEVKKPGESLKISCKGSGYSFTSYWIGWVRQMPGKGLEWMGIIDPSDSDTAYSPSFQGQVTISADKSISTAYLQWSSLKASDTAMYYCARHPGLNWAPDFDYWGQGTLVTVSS VL: DIQMTQSPSSLSASVGDRVTITCRASQSIRNSLNWYQQKPGKAPKLLIKWASSLQSGVPSRFSGSGSGTDFTLTISSLQPEDFATYYCQQLYDWPLTFGQGTKVEIK" recorded_number=0.269
binder="IFWM3310 (antibody, V domains shown, VH IFWH591, VL IFWL1007; converted mAb; also called IFWB3045) VH: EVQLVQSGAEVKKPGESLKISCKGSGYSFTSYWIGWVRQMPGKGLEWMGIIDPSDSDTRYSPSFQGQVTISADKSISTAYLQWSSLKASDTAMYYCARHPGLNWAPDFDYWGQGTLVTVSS VL: DIQMTQSPSSLSASVGDRVTITCRASQSIGKSLNWYQQKPGKAPKLLIYFASSLQSGVPSRFSGSGSGTDFTLTISSLQPEDFATYYCQQSYDFPLTFGQGTKVEIK" recorded_number=0.177
binder="IFWM3341 (antibody, V domains shown, VH IFWH624, VL IFWL991; converted mAb; also called IFWB3076) VH: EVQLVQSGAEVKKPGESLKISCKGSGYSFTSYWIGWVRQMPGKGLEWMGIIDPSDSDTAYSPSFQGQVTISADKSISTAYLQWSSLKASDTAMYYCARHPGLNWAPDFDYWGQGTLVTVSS VL: DIQMTQSPSSLSASVGDRVTITCRASQSINRFLNWYQQKPGKAPKLLIYAASSLQSGVPSRFSGSGSGTDFTLTISSLQPEDFATYYCQQAIDLPFTFGQGTKVEIK" recorded_number=0.445

Lab note: measured Kd of IFWM3327 (antibody, V domains shown, VH IFWH591, VL IFWL1063; converted mAb; also called IFWB3062) VH: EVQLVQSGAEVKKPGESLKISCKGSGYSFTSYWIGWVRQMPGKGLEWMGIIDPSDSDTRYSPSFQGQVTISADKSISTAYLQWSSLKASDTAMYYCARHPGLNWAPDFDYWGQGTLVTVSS VL: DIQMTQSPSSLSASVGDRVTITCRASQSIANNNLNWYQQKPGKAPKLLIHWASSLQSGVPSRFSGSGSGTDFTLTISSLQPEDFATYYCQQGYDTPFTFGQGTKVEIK was 0.164

Per the record, IFWM3333 (antibody, V domains shown, VH IFWH591, VL IFWL1076; converted mAb; also called IFWB3068) VH: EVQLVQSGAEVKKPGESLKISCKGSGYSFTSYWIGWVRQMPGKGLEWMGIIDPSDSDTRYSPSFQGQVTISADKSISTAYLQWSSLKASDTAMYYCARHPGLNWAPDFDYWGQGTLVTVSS VL: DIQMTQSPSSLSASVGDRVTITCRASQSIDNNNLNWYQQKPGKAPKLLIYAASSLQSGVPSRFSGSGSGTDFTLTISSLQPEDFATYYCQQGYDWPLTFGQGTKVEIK has Kd of 0.477

Memo: IFWM3346 (antibody, V domains shown, VH IFWH624, VL IFWL1001; converted mAb; also called IFWB3081) VH: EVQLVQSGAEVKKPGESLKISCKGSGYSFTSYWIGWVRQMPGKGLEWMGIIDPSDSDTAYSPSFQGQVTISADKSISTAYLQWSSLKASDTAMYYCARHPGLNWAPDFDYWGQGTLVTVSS VL: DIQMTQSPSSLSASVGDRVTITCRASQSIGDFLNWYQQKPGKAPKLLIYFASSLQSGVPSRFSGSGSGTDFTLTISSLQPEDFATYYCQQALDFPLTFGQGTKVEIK , reported Kd: 0.48

For record IFWM3303 (antibody, V domains shown, VH IFWH591, VL IFWL992; converted mAb; also called IFWB3038) VH: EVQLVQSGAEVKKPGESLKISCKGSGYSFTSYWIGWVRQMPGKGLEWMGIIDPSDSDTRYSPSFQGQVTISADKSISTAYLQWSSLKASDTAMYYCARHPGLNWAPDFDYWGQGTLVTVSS VL: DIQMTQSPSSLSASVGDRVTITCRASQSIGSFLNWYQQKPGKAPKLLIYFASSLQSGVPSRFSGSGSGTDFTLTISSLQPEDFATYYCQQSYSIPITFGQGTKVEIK the listed Kd is 0.299

response.value for IFWM3349 (antibody, V domains shown, VH IFWH624, VL IFWL1007; converted mAb; also called IFWB3084) VH: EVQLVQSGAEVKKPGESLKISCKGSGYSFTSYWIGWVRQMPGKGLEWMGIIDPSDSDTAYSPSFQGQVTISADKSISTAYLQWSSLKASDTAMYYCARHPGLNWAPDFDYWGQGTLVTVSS VL: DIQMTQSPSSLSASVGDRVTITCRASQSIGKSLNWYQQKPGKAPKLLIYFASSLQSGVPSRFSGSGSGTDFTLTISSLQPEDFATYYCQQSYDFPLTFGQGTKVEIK (field: Kd) = 0.174

Lab note: IFWM3339 (antibody, V domains shown, VH IFWH591, VL IFWL1093; converted mAb; also called IFWB3074) VH: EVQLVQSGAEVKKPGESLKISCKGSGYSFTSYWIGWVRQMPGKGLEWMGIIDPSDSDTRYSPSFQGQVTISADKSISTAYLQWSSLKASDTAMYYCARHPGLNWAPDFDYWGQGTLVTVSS VL: DIQMTQSPSSLSASVGDRVTITCRASQSIANNDLNWYQQKPGKAPKLLIHWASSLQSGVPSRFSGSGSGTDFTLTISSLQPEDFATYYCQQDYDWPLTFGQGTKVEIK gave Kd of 0.235

Please fill in: Kd reported for IFWM3335 (antibody, V domains shown, VH IFWH591, VL IFWL1084; converted mAb; also called IFWB3070) VH: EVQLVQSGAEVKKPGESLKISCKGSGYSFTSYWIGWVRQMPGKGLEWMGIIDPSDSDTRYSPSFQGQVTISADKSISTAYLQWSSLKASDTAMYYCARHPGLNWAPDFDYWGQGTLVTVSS VL: DIQMTQSPSSLSASVGDRVTITCRASQSINYLNWYQQKPGKAPKLLIYGASSLQSGVPSRFSGSGSGTDFTLTISSLQPEDFATYYCQQSHDWPITFGQGTKVEIK = 0.336

The reported measurements were obtained from patent US20150368338A1.
